molecular target: AaegOR9 (Aedes aegypti, UniProt Q177X5); assay: Two-electrode voltage clamp of Xenopus oocytes expressing AaegOR9-ORco (tuning curve and concentration-response); type: cell-based; conditions: AaegOR9 tuning curve of Figure 1, 500 nM; 1 = most potent of 31
Sequence (Q178U6 whole entry): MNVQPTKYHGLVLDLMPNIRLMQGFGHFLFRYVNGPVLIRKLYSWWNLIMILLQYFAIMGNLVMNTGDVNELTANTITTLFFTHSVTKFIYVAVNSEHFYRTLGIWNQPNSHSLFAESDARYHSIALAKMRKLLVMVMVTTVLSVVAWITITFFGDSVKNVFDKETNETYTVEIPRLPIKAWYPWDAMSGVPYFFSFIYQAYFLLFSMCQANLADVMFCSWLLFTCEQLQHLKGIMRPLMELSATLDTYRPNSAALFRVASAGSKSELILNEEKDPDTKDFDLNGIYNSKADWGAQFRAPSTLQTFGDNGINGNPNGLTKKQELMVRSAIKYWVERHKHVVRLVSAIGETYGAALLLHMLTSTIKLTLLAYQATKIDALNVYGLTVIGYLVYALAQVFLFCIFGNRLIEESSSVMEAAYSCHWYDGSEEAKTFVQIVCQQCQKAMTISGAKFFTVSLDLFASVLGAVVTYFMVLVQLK
Sequence (Q177X5 entry or part of it): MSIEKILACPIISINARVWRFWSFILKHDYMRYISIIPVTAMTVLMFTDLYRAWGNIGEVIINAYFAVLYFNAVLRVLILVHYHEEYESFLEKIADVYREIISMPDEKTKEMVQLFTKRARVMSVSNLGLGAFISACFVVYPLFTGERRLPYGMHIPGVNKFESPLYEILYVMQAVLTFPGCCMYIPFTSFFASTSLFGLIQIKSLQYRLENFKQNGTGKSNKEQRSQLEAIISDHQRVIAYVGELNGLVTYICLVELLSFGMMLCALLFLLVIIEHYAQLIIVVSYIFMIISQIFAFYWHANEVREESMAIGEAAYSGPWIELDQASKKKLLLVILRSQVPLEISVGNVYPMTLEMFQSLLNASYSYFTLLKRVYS
Where a name gives a salt, the structure may show the parent alone.
Each entry gets not fulfilled if its Rank according to potency (No.) stays under 20, and fulfilled if its Rank according to potency (No.) is 20 or above.

// known answers, use as guide
Could you verify whether the entry NCCc1c[nH]c2ccccc12 shows Rank according to potency (No.) of no less than 20? fulfilled

Could you verify whether the entry COC(=O)Cc1c[nH]c2ccccc12 [Methyl indole-3-acetate] shows Rank according to potency (No.) of no less than 20? fulfilled

Could you verify whether the entry NC(=O)Cc1c[nH]c2ccccc12 [Indole-3-acetamide] shows Rank according to potency (No.) of no less than 20? fulfilled

Next:
Could you verify whether the entry O=C(O)Cc1c[nH]c2ccccc12 shows Rank according to potency (No.) of no less than 20? fulfilled

Could you verify whether the entry NCCc1c[nH]c2ccc(O)cc12 shows Rank according to potency (No.) of no less than 20? fulfilled

Could you verify whether the entry CN(C)Cc1c[nH]c2ccccc12 shows Rank according to potency (No.) of no less than 20? fulfilled

Could you verify whether the entry Cc1c[nH]c2ccccc12 shows Rank according to potency (No.) of no less than 20? not fulfilled

Could you verify whether the entry c1ccc2[nH]ccc2c1 shows Rank according to potency (No.) of no less than 20? not fulfilled

Could you verify whether the entry O=C1Nc2ccccc2C1=O shows Rank according to potency (No.) of no less than 20? not fulfilled

Could you verify whether the entry O=S(=O)(O)Oc1c[nH]c2ccccc12 [Indoxyl sulfate potassium salt] shows Rank according to potency (No.) of no less than 20? fulfilled

Could you verify whether the entry ON=CCc1c[nH]c2ccccc12 shows Rank according to potency (No.) of no less than 20? fulfilled
